# measurement target: human EP1 receptor (Homo sapiens, UniProt P34995)
# Construct: expressed in transfected cells; host or cells: CHO-K1
# Sequence (P34995 whole entry): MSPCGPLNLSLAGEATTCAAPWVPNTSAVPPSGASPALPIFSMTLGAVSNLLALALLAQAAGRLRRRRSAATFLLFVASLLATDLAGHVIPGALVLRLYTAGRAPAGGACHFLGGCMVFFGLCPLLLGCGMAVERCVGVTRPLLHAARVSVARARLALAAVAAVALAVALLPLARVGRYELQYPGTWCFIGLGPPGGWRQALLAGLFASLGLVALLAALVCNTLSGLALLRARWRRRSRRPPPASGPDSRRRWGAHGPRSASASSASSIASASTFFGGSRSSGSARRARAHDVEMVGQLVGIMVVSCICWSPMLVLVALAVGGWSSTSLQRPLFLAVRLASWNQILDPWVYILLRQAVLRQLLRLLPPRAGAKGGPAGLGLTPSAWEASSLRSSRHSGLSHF
# assay protocol: human EP1 calcium mobilisation assay
# Assay type: cell-based
# assay setup: human EP1, PGE2-induced calcium mobilisation in CHO-K1 cells; free bases or sodium salts; averages of a number of experiments; read-out: functional pKi value (converted)
parameter: Ki

- O=C(Nc1c(F)cccc1F)c1ccc(Cc2cc(Cl)ccc2OCc2cccc(F)c2F)o1: < 1 µM
- CC(C)COc1ccc(Cl)cc1Cc1ccc(C(=O)NCc2cccc3ccccc23)o1: < 1 µM
- CCN1CCN(c2ccc3nc(-c4ccc(Cc5cc(Cl)ccc5OCC(C)C)o4)[nH]c3c2)CC1: < 1 µM
- O=C(Nc1ccccc1-c1ccccc1)c1ccc(Cc2cc(Cl)ccc2OCc2ccccc2)o1: > 1 µM
- Cc1cc(C(=O)NCc2ccccc2)oc1Cc1cc(Cl)ccc1OCc1ccccc1: < 1 µM
- CC(C)CCOc1ccc(Cl)cc1Cc1ccc(C(=O)O)o1: < 1 µM
- CC(C)COc1ccc(Cl)cc1Cc1ccc(C(=O)Nc2c(F)cccc2F)o1: < 1 µM
- CC(C)COc1ccc(Cl)cc1Cc1ccc(C(=O)NCc2ccc3c(c2)OCO3)o1: < 1 µM
- CC(C)COc1ccc(Cl)cc1Cc1ccc(C(=O)NCc2ccc(F)cc2)o1: < 1 µM
- CN1CCN(Cc2cccc3nc(-c4ccc(Cc5cc(Cl)ccc5OCc5ccccc5)o4)[nH]c23)CC1: < 1 µM
- CC(C)COc1ccc(Cl)cc1Cc1ccc(-c2nc3ccc(N(C)C)cc3[nH]2)o1: < 1 µM
- CC(C)COc1ccc(Cl)cc1Cc1ccc(-c2nc3ccc(CN4CCCCC4)cc3[nH]2)o1: < 1 µM
- O=C(O)c1ccc(Cc2cc(Cl)ccc2OCc2ccc(F)cc2Cl)o1: ≤ 0.01 µM
- CCCOc1ccc(Cl)cc1Cc1ccc(C(=O)Nc2c(F)cccc2F)o1: < 1 µM
- CC(C)NC(=O)c1ccc(Cc2cc(Cl)ccc2OCc2ccccc2)o1: < 1 µM
- CC(C)COc1ccc(Cl)cc1Cc1ccc(-c2nc3cccc(CO)c3[nH]2)o1: > 1 µM
- O=C(O)c1ccc(Cc2cc(Cl)ccc2OCc2ccccn2)o1: ≤ 0.01 µM
